Origin of values: ChEMBL document CHEMBL5528037

- Target System: UniProt P51451
- Sequence (P51451 whole entry): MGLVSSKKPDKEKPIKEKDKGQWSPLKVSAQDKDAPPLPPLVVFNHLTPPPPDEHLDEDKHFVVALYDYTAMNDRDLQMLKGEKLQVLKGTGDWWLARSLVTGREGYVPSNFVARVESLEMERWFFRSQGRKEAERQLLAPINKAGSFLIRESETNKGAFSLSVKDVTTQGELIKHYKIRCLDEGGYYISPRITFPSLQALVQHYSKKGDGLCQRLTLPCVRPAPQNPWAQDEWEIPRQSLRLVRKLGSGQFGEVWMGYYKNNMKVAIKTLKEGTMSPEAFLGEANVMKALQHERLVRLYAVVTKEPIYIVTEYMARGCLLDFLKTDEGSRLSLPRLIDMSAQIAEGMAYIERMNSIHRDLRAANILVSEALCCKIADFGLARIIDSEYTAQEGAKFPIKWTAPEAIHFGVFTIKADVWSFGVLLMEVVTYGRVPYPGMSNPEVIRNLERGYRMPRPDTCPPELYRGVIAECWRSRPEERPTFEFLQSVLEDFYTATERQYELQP
- Test Name: Displacement of K-4 tracer from wild type BLK in HEK293T cells expressing NanoLuc preincubated for 3 hrs followed by tracer addition and measured after 1 hr by NanoBRET analysis
- Format: cell-based
pIC50: −log10 of the molar value.
Endpoint Name: pIC50

Query: Short answer please: pIC50, UniProt P51451, entry CCC(=O)N1CC(Oc2nn(C(C)(C)C)c3ncnc(N)c23)C1
Reply: < 4.52

====

- System: BaF3
- Test Name: cells
- Experimental Context: Mus musculus, BaF3, 72 h
Endpoint Name: pIC50
On this scale, pIC50 is minus log10 of a concentration expressed in M (mol/L).

Molecule: C=CC(=O)Nc1cc(Nc2nccc(-c3cn(C)c4ccccc34)n2)c(OC)cc1N(C)CCN(C)C
Target System: BaF3
pIC50: 7.72

Molecule: C=CC(=O)N1CCC(Oc2nn(C(C)(C)C)c3ncnc(N)c23)CC1
Target System: BaF3
pIC50: 5.44

// moving on: another record for pIC50
Query: pIC50 lookup needed for C=CC(=O)N1CCC(Oc2nn(C(C)(C)C)c3ncnc(N)c23)C1 (centres undefined) , thanks.
Reply: 5.22
